molecular target: 17-beta-hydroxysteroid dehydrogenase type 1 (Homo sapiens); experiment: Tested for time-dependent inactivation of the enzyme that followed pseudo- first- order kinetics in the absence of NAD+ and the Ki values were reported
quantity: Ki (µM)

{"compound": "C[C@]1(C(O)C#CC(F)(F)F)CCC2c3ccc(O)cc3CCC2C1 (some centres not stated)", "quantity": "Ki", "measuredNumber": 59}
{"compound": "C[C@@]1(C(O)C#CC(F)(F)F)CCC2c3ccc(O)cc3CCC2C1 (single isomer, unassigned)", "quantity": "Ki", "measuredNumber": 65}

----------
assay: The limiting half life time was reported
quantity: half-life (min)

{"molecule": "C[C@@]1(C(O)C#CC(F)(F)F)CCC2c3ccc(O)cc3CCC2C1 (single isomer, unassigned)", "quantity": "half-life", "unitsSymbol": "min", "measuredNumber": 8}
{"molecule": "C[C@]1(C(O)C#CC(F)(F)F)CCC2c3ccc(O)cc3CCC2C1 (some centres not stated)", "quantity": "half-life", "unitsSymbol": "min", "measuredNumber": 7}

----------
Molecular target: 17-beta-hydroxysteroid dehydrogenase type 1 (Homo sapiens) (UniProt P14061)
Sequence (whole entry): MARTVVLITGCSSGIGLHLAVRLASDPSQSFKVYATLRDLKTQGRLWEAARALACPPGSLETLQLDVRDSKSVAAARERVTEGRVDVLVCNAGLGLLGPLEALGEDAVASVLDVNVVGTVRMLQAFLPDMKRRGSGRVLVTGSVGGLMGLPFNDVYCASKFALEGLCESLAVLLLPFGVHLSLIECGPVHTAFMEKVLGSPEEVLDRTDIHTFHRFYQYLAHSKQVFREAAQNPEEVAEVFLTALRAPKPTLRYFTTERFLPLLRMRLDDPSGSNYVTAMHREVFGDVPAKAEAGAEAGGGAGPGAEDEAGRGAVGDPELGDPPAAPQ
Assay: Tested by protection experiments to demonstrate the inactivation of estradiol dehydrogenase and the kinetic parameter Kapp was reported at a concentration of 20 uM
quantity: K app (min⁻¹)

Examples from the recorded data:
{"compound": "NC(=O)c1ccc[n+]([C@@H]2O[C@H](COP(=O)([O-])OP(=O)(O)OC[C@H]3O[C@@H](n4cnc5c(N)ncnc54)[C@H](O)[C@@H]3O)[C@@H](O)[C@H]2O)c1", "K app, min⁻¹": 0.013}
{"compound": "C[C@]1(C(O)C#CC(F)(F)F)CCC2c3ccc(O)cc3CCC2C1 (some centres undefined)", "K app, min⁻¹": 0.026}

a = NC(=O)C1=CN(C2OC(COP(=O)(O)OP(=O)(O)OC[C@H]3O[C@@H](n4cnc5c(N)ncnc54)[C@H](O)[C@@H]3O)[C@H](O)[C@@H]2O)C=CC1 (some centres undefined)
b = C[C@]12CC[C@@H]3c4ccc(O)cc4CC[C@H]3[C@@H]1CC[C@@H]2O
Select the item with the higher value of K app from the options a and b listed. Write down the label attached to your selection.
a
(a: 0.025 min⁻¹, b: 0.013 min⁻¹)
